system: ATP; assay: switch fluorescence ratio, 500 uM ATP over buffer (Cy3 cluster intensity, sum of 5 cycles each) (fold (ratio)); higher = stronger signal-on switching upon ATP binding; sequences stand for … in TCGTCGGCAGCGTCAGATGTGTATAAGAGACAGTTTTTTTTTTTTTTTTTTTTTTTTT…TC; details: aptamer strand: ATP DNA aptamer (quencher-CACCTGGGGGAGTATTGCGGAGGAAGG + anchor), 100 nM annealed; ATP concentration: 500 uM;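 note: ATP exposure 15 min at 22 °C before imaging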
So basically: switch fluorescence ratio at 1 or higher? That is class 1. Lower than 1? That is class 0.

Could you verify whether the entry CAGGGGGAAC shows switch fluorescence ratio of no less than 1?
class 1

Can you handle TTTTTTACCT next?
class 1

Also need TTGGAATGTT , thanks.
class 0

Another sequence to check: ACCAGGTGGT
class 1

Continuing:
// inclusive: switch fluorescence ratio at least 1? input: AGACGGTCAA
class 1

The reported numbers originate from the supplement of paper PMC10126150.
